Target: human glucocorticoid receptor-α [GRX] isoform (Homo sapiens)
Construct: host or cells: insect SF21 cells (baculovirus)
Test: Radioligand binding with human glucocorticoid receptor cytosol ([3H]-dexamethasone competition)
Settings: GRX cytosol expressed in insect SF21 cells, [3H]-Dex ~0.9 nM, 4° C. overnight; Ki by Cheng-Prusoff, KL ~[…]; read-out: Ki (nM) GR
measurement_type: Ki (nM)

> print(dat)
                                   compound                             tested.system  measurement.type  units.text  measured.value
1  COc1cccc2c1-c1ccc3c(c1C(c1ccc(F)c(C)c1)O2)C(C)=CC(C)(C)N3 (stereo not shown)  human glucocorticoid receptor-α [GRX] isoform (Homo sapiens)                Ki          nM             8.2

A = CCCCC1Oc2ccc(O)c(Cl)c2-c2ccc3c(c21)C(C)=CC(C)(C)N3 (stereo not shown)
B = COc1ccc(C2Oc3ccc(O)c(OC)c3-c3ccc4c(c32)C(C)=CC(C)(C)N4)s1 (stereo not shown)
C = COc1cccc2c1-c1ccc3c(c1C(c1cccc(OCSC)c1)O2)C(C)=CC(C)(C)N3 (stereo not shown)
query: Highest Ki first, then in falling order down to the smallest. Provide your answer as the labels ordered per the instruction.
result: C, A, B

a = C=C(CO)CC1Oc2ccc(O)c(OC)c2-c2ccc3c(c21)C(C)=CC(C)(C)N3 (stereo not shown)
b = COc1cccc2c1-c1ccc3c(c1[C@@H]([C@@H]1C=C(C)CCC1)O2)C(C)=CC(C)(C)N3
query: Returns: the label, a or b , whose recorded Ki is the lower number. State your choice using its label.
result: a
(a: 1.6 nM, b: 48 nM)

A = C=C(C)CC1Oc2cccc(OC)c2-c2ccc3c(c21)C(C)=CC(C)(C)N3 (stereo not shown)
B = COc1cccc2c1-c1ccc3c(c1C(c1cc(C)cc(NC(=O)N(C)C)c1)O2)C(C)=CC(C)(C)N3 (stereo not shown)
query: Compare A and B by numeric Ki and name the larger one. Answer by quoting the chosen item's label.
result: B
(B: 43 nM, A: 3.3 nM)

---

Molecular target: human progesterone receptor-A [PRA] isoform (Homo sapiens)
Construct: host or cells: insect SF21 cells (baculovirus)
Sequence (P06401 165-933): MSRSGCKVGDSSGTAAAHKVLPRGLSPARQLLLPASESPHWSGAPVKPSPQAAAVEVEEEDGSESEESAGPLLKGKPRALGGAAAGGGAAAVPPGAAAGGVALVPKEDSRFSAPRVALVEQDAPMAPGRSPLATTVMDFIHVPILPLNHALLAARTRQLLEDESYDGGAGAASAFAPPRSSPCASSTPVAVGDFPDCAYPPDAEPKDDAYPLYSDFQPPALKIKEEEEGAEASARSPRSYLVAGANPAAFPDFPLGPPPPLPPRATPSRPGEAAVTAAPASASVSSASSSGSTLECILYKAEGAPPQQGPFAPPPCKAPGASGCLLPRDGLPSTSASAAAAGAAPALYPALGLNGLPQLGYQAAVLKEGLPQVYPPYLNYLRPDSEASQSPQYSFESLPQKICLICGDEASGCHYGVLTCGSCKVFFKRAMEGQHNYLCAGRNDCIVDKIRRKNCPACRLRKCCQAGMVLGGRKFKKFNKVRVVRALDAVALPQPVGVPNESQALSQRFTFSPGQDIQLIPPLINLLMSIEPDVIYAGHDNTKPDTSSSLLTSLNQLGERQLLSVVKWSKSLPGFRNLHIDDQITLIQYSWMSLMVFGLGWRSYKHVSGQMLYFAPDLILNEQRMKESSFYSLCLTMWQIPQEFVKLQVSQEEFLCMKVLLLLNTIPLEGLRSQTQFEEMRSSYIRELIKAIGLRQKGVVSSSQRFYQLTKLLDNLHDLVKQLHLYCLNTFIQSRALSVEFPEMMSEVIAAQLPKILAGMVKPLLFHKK
Test: Radioligand binding with human progesterone receptor cytosol ([3H]-progesterone competition)
Conditions: PRA cytosol expressed in insect SF21 cells, [3H]Prog ~0.8 nM, 4° C. overnight; Ki by Cheng-Prusoff, KL ~4.5 nM; read-out: Ki (nM) PR
measurement_type: Ki (nM)

These recorded examples may help you get a feel for the data.
> print(dat)
                                   compound  measurement.type  measured.value
1  CC1=CC(C)(C)Nc2ccc3c(c21)C(c1ccccc1)Oc1ccc2c(c1-3)OCO2 (stereo not shown)                Ki            1930
2  C=CCC1Oc2ccc(OCC#N)c(OC)c2-c2ccc3c(c21)C(C)=CC(C)(C)N3 (racemic)                Ki            3080
3  CCc1cccc2c1-c1ccc3c(c1C(c1ccccc1)O2)C(C)=CC(C)(C)N3 (stereo not shown)                Ki            7300
4  COc1cccc2c1-c1ccc3c(c1C(c1ccc(F)cc1)O2)C(C)=CC(C)(C)N3 (stereo not shown)                Ki            7920
5  C=CCC1Oc2ccc(O)c(Cl)c2-c2ccc3c(c21)C(C)=CC(C)(C)N3 (stereo not shown)                Ki             7.6

P = CC1=CC(C)(C)Nc2ccc3c(c21)[C@@H]([C@@H]1C=CCC1)Oc1ccc(O)c(Cl)c1-3
Q = CC1=CC(C)(C)Nc2ccc3c(c21)C(c1ccccc1)Oc1ccc(O)c(Cl)c1-3 (stereo not shown)
R = COc1cccc2c1-c1ccc3c(c1C(C#Cc1ccccc1)O2)C(C)=CC(C)(C)N3 (stereo not shown)
S = COc1cccc2c1-c1ccc3c(c1C(c1cccs1)O2)C(C)=CC(C)(C)N3 (stereo not shown)
query: Sort these compounds on Ki so the largest reading comes first. Provide your answer as the labels ordered per the instruction.
result: S, R, P, Q
(S: 3620 nM, R: 2300 nM, P: 786 nM, Q: 65.1 nM)

---

Target: human progesterone receptor-A [PRA] isoform (Homo sapiens)
Construct: host or cells: insect SF21 cells (baculovirus)
Test: Radioligand binding with human progesterone receptor cytosol ([3H]-progesterone competition)
Details: PRA cytosol expressed in insect SF21 cells, [3H]Prog ~0.8 nM, 4° C. overnight; Ki by Cheng-Prusoff, KL ~4.5 nM; read-out: Ki (nM) PR
measurement_type: Ki

> print(dat)
                                   molecule  measured.value
1  COc1c(O)ccc2c1-c1ccc3c(c1C(c1cc(C(F)(F)F)cc(C(F)(F)F)c1)O2)C(C)=CC(C)(C)N3 (centres unmarked) [Example 257]         1620 nM
2  COc1cccc2c1-c1ccc3c(c1C(CCOC(=O)N(C)C)O2)C(C)=CC(C)(C)N3 (centres unmarked) [Example 204]      ≥ 10000 nM

// switching to the query molecule
query: For COC(=O)CC1Oc2cccc(OC)c2-c2ccc3c(c21)C(C)=CC(C)(C)N3 (centres unmarked) [Example 46] , what is its reported Ki?
result: 3440 nM

---

Target: human glucocorticoid receptor-α [GRX] isoform (Homo sapiens, UniProt P04150)
Construct: host or cells: insect SF21 cells (baculovirus)
Sequence (P04150 whole entry, canonical isoform): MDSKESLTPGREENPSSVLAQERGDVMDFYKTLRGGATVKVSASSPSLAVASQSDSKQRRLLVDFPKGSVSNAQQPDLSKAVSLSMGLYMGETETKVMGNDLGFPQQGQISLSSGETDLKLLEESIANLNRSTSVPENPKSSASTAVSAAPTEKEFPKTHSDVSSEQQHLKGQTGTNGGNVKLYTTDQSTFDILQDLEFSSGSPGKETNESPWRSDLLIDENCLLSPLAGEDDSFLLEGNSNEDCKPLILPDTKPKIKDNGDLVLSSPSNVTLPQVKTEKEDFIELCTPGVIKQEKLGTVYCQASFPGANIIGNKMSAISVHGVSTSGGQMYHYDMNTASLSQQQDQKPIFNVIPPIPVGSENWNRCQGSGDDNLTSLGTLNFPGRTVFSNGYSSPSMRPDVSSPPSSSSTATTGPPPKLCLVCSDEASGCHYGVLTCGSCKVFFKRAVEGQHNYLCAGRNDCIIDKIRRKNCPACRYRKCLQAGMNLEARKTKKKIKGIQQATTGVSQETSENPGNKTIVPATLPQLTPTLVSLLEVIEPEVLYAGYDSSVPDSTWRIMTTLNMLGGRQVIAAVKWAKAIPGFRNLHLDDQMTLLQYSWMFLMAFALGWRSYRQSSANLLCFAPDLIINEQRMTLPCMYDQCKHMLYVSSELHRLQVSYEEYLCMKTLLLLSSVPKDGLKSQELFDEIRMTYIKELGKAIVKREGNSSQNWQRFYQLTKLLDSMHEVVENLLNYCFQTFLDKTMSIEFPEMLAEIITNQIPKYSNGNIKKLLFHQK
Test: Radioligand binding with human glucocorticoid receptor cytosol ([3H]-dexamethasone competition)
Conditions: GRX cytosol expressed in insect SF21 cells, [3H]-Dex ~0.9 nM, 4° C. overnight; Ki by Cheng-Prusoff, KL ~[…]; read-out: Ki (nM) GR
measurement_type: Ki (nM)

Some compounds with recorded Ki:
> print(dat)
                                   compound  units.text  measured.value
1  C=CCC1Oc2cccc(OC)c2-c2ccc3c(c21)C(C)=CC1(CCOCC1)N3 (centres unmarked) [Example 359]          nM            11.3
2  C=CCC1Oc2cccc(OC)c2-c2ccc3c(c21)C(C)=C(C)C(C)(C)N3 (centres unmarked) [Example 362]          nM             6.5
3  COc1cccc2c1-c1ccc3c(c1C(CC(C)C)O2)C(C)=CC(C)(C)N3 (centres unmarked) [Example 59]          nM             9.5
4  COc1c(O)ccc2c1-c1ccc3c(c1C(c1ccccc1C)O2)C(C)=CC(C)(C)N3 (racemic) [Example 275]          nM            11.7
5  COc1c(O)ccc2c1-c1ccc3c(c1[C@H](C1CCCC1)O2)C(C)=CC(C)(C)N3 [Example 264]          nM            0.51

P = COc1c(O)ccc2c1-c1ccc3c(c1[C@H]([C@H]1C=C(C)CCC1)O2)C(C)=CC(C)(C)N3 (racemic) [Example 243]
Q = COC(=S)Oc1cccc(C2Oc3cccc(OC)c3-c3ccc4c(c32)C(C)=CC(C)(C)N4)c1 (centres unmarked) [Example 104]
query: I'm curious, which of these has a smaller Ki number: P or Q ? Choose, then provide that item's label.
result: P
(P: 1.6 nM, Q: 8.9 nM)

---

Molecular target: human glucocorticoid receptor-α [GRX] isoform (Homo sapiens)
Construct: host or cells: insect SF21 cells (baculovirus)
Test: Radioligand binding with human glucocorticoid receptor cytosol ([3H]-dexamethasone competition)
Conditions: GRX cytosol expressed in insect SF21 cells, [3H]-Dex ~0.9 nM, 4° C. overnight; Ki by Cheng-Prusoff, KL ~[…]; read-out: Ki (nM) GR
measurement_type: Ki (nM)

Here is how some compounds turned out for Ki.
> print(dat)
                                   compound  measurement.type  units.text  measured.value
1  COc1cccc2c1-c1ccc3c(c1C(=Cc1cc(Cl)cc(Cl)c1)O2)C(C)=CC(C)(C)N3                Ki          nM            30.3
2  COc1cccc2c1-c1ccc3c(c1C(CC(=O)N(C)OC)O2)C(C)=CC(C)(C)N3 (centres unmarked)                Ki          nM             288
3  COc1cccc2c1-c1ccc3c(c1C([C@@H]1C=C(CN(C)C)CCC1)O2)C(C)=CC(C)(C)N3 (stereo in doubt)                Ki          nM             300
4  C=CCC1Oc2cc(F)cc(OC)c2-c2ccc3c(c21)C(C)=CC(C)(C)N3 (centres unmarked)                Ki          nM             2.5
5  CCC(C)=C1Oc2cccc(OC)c2-c2ccc3c(c21)C(C)=CC(C)(C)N3                Ki          nM              27
6  CC1=CC(C)(C)Nc2ccc3c(c21)C(c1cc(Cl)cc(Cl)c1)Oc1ccc(O)c(Cl)c1-3 (centres unmarked)                Ki          nM             2.6

a = COc1c(O)ccc2c1-c1ccc3c(c1[C@H]([C@@H]1C=CCCCC1)O2)C(C)=CC(C)(C)N3
b = C/C=C\CC1Oc2ccc(O)c(OC)c2-c2ccc3c(c21)C(C)=CC(C)(C)N3 (centres unmarked)
query: Just curious, which one has the larger Ki reading, a or b ? Bench note: the answer is the label of the chosen record.
result: a
(a: 0.87 nM, b: 0.5 nM)
